Test Description: NCI Yeast Anticancer Drug Screen. Data for the cln2 rad14 strain (AID 165);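 note: 0% = growth equal to vehicle treated cultures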
Condition Context: S. cerevisiae cln2 rad14 strain, at 50.0 µM, stronger effect = higher value
Compounds without any hit were thinned out: in the full panel of roughly 79,000, 15% have a hit.
Quantity Name: growth inhibition (%)
Your answer should be a plain number; it is taken to be in %.

Exercise: Return growth inhibition for the following compound: Cc1ccccc1C(=O)c1ccc2ccccc2c1
Solution: 9.35

Exercise: Return growth inhibition for the following compound: Cc1nc(C)c(Cc2ccccc2)o1
Solution: 27.6

Exercise: Return growth inhibition for the following compound: CO/N=C1C=C/C(=N\OC)C\1
Solution: 7.55

Exercise: Return growth inhibition for the following compound: C/C(=N\NC(=S)N1CC2CCC(CC2)C1)c1cccc(C)n1
Solution: 8.85

Exercise: Return growth inhibition for the following compound: CN(C)C(=O)Sc1ccc(N(C)C)cc1
Solution: -25.2

Exercise: Return growth inhibition for the following compound: Fc1ccc(-c2ncc(-c3ccccc3)o2)cc1
Solution: 0.05

Exercise: Return growth inhibition for the following compound: COc1cc(OC)c(N=Nc2c(C)nc(N)nc2-c2ccccc2)cc1Cl
Solution: 20.3

Exercise: Return growth inhibition for the following compound: FC(F)(F)C(F)(F)C(F)(F)c1nc(C(F)(F)C(F)(F)C(F)(F)F)nc(C(F)(F)C(F)(F)C(F)(F)F)n1
Solution: 18.6

Exercise: Return growth inhibition for the following compound: CSC1(SC2=NCCN2)SC2(NCCN2)S1
Solution: -24.1

Exercise: Return growth inhibition for the following compound: CCOC(=O)CC1(CC(=O)OCC)OCCO1
Solution: -4.15

Exercise: Return growth inhibition for the following compound: NC(=O)C1C[C@@H](O)CN1C(=O)c1ccc2c(c1)OCO2 (some centres not stated)
Solution: 6.5

Exercise: Return growth inhibition for the following compound: Cc1ccc(S(=O)(=O)OCC2CCC(=O)N2)cc1 (configuration not stated)
Solution: -3.15
